Examples of compounds with documented IC50 follow.
System: T24 cells
Test: CCK-8 anti-proliferative assay, T24
Type: cell-based, human
Conditions: Homo sapiens, T-24; Table 6; co-incubated 48 h; read-out: Anti-proliferative activity (IC50 ± standard deviation) T24
Parameter: IC50

[[record]]
structure_string = "COc1cc2ncnc(NCc3cccc(NC(=O)Nc4ccc(F)cc4)c3)c2cc1OCCCCCCN1CCN(CCN2CCOCC2)CC1"
result = "10.4 µM"

[[record]]
structure_string = "CCc1cccc(CC)c1NC(=O)Nc1cccc(CNc2ncnc3cc(OC)c(OCCCCCCN4CCN(CCN5CCOCC5)CC4)cc23)c1"
result = "6.89 µM"

[[record]]
structure_string = "COc1cc2ncnc(NCc3cccc(NC(=O)Nc4ccccc4Cl)c3)c2cc1OCCCCCCN1CCN(CCN2CCOCC2)CC1"
result = "8.82 µM"


---

System: immortalized ureteral epithelial cells (SV-HUC-1)
Assay: CCK-8 anti-proliferative assay, normal cells SV-HUC-1
Format: cell-based, human
Conditions: Homo sapiens, SV-HUC1; Table 13; normal cells; co-incubated 48 h; read-out: Anti-proliferative activity (IC50 ± standard deviation) SV-HUC-1
pIC50: −log10 of the molar value.
Parameter: pIC50

[[record]]
structure_string = "COc1cc2ncnc(NCc3cccc(NC(=O)Nc4cc(C(F)(F)F)cc(C(F)(F)F)c4)c3)c2cc1OCCCCCCN1CCC(CN2CCN(c3ccccn3)CC2)CC1"
parameter = "pIC50"
numeric_result = 5.14

[[record]]
structure_string = "COc1cc2ncnc(NCc3cccc(NC(=O)NCc4ccccc4)c3)c2cc1OCCCCCCN1CCC(CN2CCN(c3ccccn3)CC2)CC1"
parameter = "pIC50"
numeric_result = 5.05

[[record]]
structure_string = "COc1cc2ncnc(NCc3cccc(NC(=O)Nc4ccc(C(C)C)cc4)c3)c2cc1OCCCCCCN1CCC(CN2CCN(c3ccccn3)CC2)CC1"
parameter = "pIC50"
numeric_result = 4.97

[[record]]
structure_string = "CCc1ccccc1NC(=O)Nc1cccc(CNc2ncnc3cc(OC)c(OCCCCCCN4CCC(CN5CCN(c6ccccn6)CC5)CC4)cc23)c1"
parameter = "pIC50"
numeric_result = 5.13

[[record]]
structure_string = "COc1cc2ncnc(NCc3cccc(NC(=O)Nc4ccccc4C)c3)c2cc1OCCCCCCN1CCC(CN2CCN(c3ccccn3)CC2)CC1"
parameter = "pIC50"
numeric_result = 5.06


---

Tested on: UM-UC-3 cells
Assay: CCK-8 anti-proliferative assay, UM-UC-3
Type: cell-based, human
Details: Table 6; co-incubated 48 h; read-out: Anti-proliferative activity (IC50 ± standard deviation) UM-UC-3
pIC50: −log10 of the molar value.
Parameter: pIC50

[[record]]
compound = "COc1cc2ncnc(NCc3cccc(NC(=O)Nc4ccccc4)c3)c2cc1OCCCCCCN1CCN(CCN2CCOCC2)CC1 [Compound 8-1a]"
result = "< 4.52"


---

Tested on: immortalized ureteral epithelial cells (SV-HUC-1)
Experiment: CCK-8 anti-proliferative assay, normal cells SV-HUC-1
Assay type: cell-based, human
Conditions: Homo sapiens, SV-HUC1; Table 13; normal cells; co-incubated 48 h; read-out: Anti-proliferative activity (IC50 ± standard deviation) SV-HUC-1
Examples of compounds with documented IC50 follow.
Parameter: IC50 (µM)

[[record]]
structure_string = "COc1cc2ncnc(NCc3cccc(NC(=O)Nc4ccc(F)c(C(F)(F)F)c4)c3)c2cc1OCCCCCCN1CCC(CN2CCN(c3ccccn3)CC2)CC1"
numeric_result = 23.1

[[record]]
structure_string = "COc1cc2ncnc(NCc3cccc(NC(=O)Nc4ccc(F)cc4)c3)c2cc1OCCCCCCN1CCC(CN2CCN(c3ccccn3)CC2)CC1"
numeric_result = 14.4

[[record]]
structure_string = "COc1cc2ncnc(NCc3cccc(NC(=O)Nc4ccccc4)c3)c2cc1OCCCCCCN1CCC(CN2CCN(c3ccccn3)CC2)CC1"
numeric_result = 26.4

[[record]]
structure_string = "CCc1cccc(CC)c1NC(=O)Nc1cccc(CNc2ncnc3cc(OC)c(OCCCCCCN4CCC(CN5CCN(c6ccccn6)CC5)CC4)cc23)c1"
numeric_result = 9.53

[[record]]
structure_string = "COc1cc2ncnc(NCc3cccc(NC(=O)Nc4ccc(Cl)c(C(F)(F)F)c4)c3)c2cc1OCCCCCCN1CCC(CN2CCN(c3ccccn3)CC2)CC1"
numeric_result = 7.33

[[record]]
structure_string = "COc1cc2ncnc(NCc3cccc(NC(=O)Nc4ccccc4Cl)c3)c2cc1OCCCCCCN1CCC(CN2CCN(c3ccccn3)CC2)CC1"
numeric_result = 16.2

[[record]]
structure_string = "COc1cc2ncnc(NCc3cccc(NC(=O)NC4CCCCC4)c3)c2cc1OCCCCCCN1CCC(CN2CCN(c3ccccn3)CC2)CC1"
numeric_result = 8.02

[[record]]
structure_string = "COc1ccccc1NC(=O)Nc1cccc(CNc2ncnc3cc(OC)c(OCCCCCCN4CCC(CN5CCN(c6ccccn6)CC5)CC4)cc23)c1"
numeric_result = 13

[[record]]
structure_string = "COc1cc2ncnc(NCc3cccc(NC(=O)Nc4ccc(Cl)cc4Cl)c3)c2cc1OCCCCCCN1CCC(CN2CCN(c3ccccn3)CC2)CC1"
numeric_result = 8.41

[[record]]
structure_string = "COc1cc2ncnc(NCc3cccc(NC(=O)Nc4ccc(C)cc4C)c3)c2cc1OCCCCCCN1CCC(CN2CCN(c3ccccn3)CC2)CC1"
numeric_result = 7.56

[[record]]
structure_string = "COc1cc2ncnc(NCc3cccc(NC(=O)Nc4ccc(C)cc4)c3)c2cc1OCCCCCCN1CCC(CN2CCN(c3ccccn3)CC2)CC1"
numeric_result = 7.94

[[record]]
structure_string = "COc1ccc(NC(=O)Nc2cccc(CNc3ncnc4cc(OC)c(OCCCCCCN5CCC(CN6CCN(c7ccccn7)CC6)CC5)cc34)c2)cc1"
numeric_result = 10.9


---

Examples of compounds with documented IC50 follow.
Test system: 143B cells
Assay: CCK-8 anti-proliferative assay, 143B
Format: cell-based, human
Conditions: Homo sapiens, 143B; read-out: IC50 values, osteosarcoma cells 143B
Parameter: IC50

[[record]]
structure_string = "COc1cc2ncnc(NCc3cccc(NC(=O)Nc4ccc(C(C)(C)C)cc4)c3)c2cc1OCCCCCCN1CCN(CCN2CCOCC2)CC1"
result = "< 5 µM"

[[record]]
structure_string = "CCc1cccc(CC)c1NC(=O)Nc1cccc(CNc2ncnc3cc(OC)c(OCCCCCCN4CCC(CN5CCN(c6ccccn6)CC5)CC4)cc23)c1"
result = "< 5 µM"

[[record]]
structure_string = "COc1cc2ncnc(NCc3cccc(NC(=O)NC4CCCCC4)c3)c2cc1OCCCCCCN1CCC(CN2CCN(c3ccccn3)CC2)CC1"
result = "< 5 µM"


---

Examples of compounds with documented pIC50 follow.
Test system: Hep G2 cells
Test: CCK-8 anti-proliferative assay, Hep G2
Assay type: cell-based, human
Settings: Table 16; comparative compounds 8-1 to 8-23; co-incubated 48 h; read-out: Anti-proliferative activity (IC50 ± standard deviation) Hep G2
pIC50: −log10 of the molar value.
Parameter: pIC50

[[record]]
compound = "COc1cc2ncnc(NCc3cccc(NC(=O)Nc4ccccc4Cl)c3)c2cc1OCCCCCCN1CCC(CN2CCN(c3ccccn3)CC2)CC1 [Compound 8-20, reference compound]"
result = "< 4.52"

[[record]]
compound = "COc1cc2ncnc(NCc3cccc(NC(=O)Nc4ccc(F)cc4)c3)c2cc1OCCCCCCN1CCN(CCN2CCOCC2)CC1 [Compound 8-11, reference compound]"
result = "< 4.52"

[[record]]
compound = "COc1ccc(NC(=O)Nc2cccc(CNc3ncnc4cc(OC)c(OCCCCCCN5CCC(CN6CCN(c7ccccn7)CC6)CC5)cc34)c2)cc1 [Compound 8-21, reference compound]"
result = 4.85


---

System: 5637 cells
Assay: CCK-8 anti-proliferative assay, 5637
Format: cell-based, human
Conditions: Homo sapiens; Table 16; comparative compounds 8-1 to 8-23; co-incubated 48 h; read-out: Anti-proliferative activity (IC50 ± standard deviation) 5637
IC50 vs 20 µM: less than gives T; not less than gives F.

[[record]]
molecule = "COc1cc2ncnc(NCc3cccc(NC(=O)Nc4ccc(F)c(C(F)(F)F)c4)c3)c2cc1OCCCC(=O)N1CCC(N2CCOCC2)CC1 [Compound 8-19, reference compound]"
discrete_label = "T"

[[record]]
molecule = "COc1cc2ncnc(NCc3cccc(NC(=O)Nc4cc(C)cc(C)c4)c3)c2cc1OCCCC(=O)N1CCC(N2CCOCC2)CC1 [Compound 8-5, reference compound]"
discrete_label = "F"

[[record]]
molecule = "COc1cc2ncnc(NCc3cccc(NC(=O)NCc4ccccc4)c3)c2cc1OCCCC(=O)N1CCC(N2CCOCC2)CC1 [Compound 8-23, reference compound]"
discrete_label = "F"

[[record]]
molecule = "COc1cc2ncnc(NCc3cccc(NC(=O)Nc4c(Cl)cc(Cl)cc4Cl)c3)c2cc1OCCCC(=O)N1CCC(N2CCOCC2)CC1 [Compound 8-16, reference compound]"
discrete_label = "F"

[[record]]
molecule = "COc1cc2ncnc(NCc3cccc(NC(=O)Nc4ccc(Cl)cc4)c3)c2cc1OCCCC(=O)N1CCC(N2CCOCC2)CC1 [Compound 8-15, reference compound]"
discrete_label = "T"

[[record]]
molecule = "COc1cc2ncnc(NCc3cccc(NC(=O)Nc4ccc(C(C)C)cc4)c3)c2cc1OCCCC(=O)N1CCC(N2CCOCC2)CC1 [Compound 8-8, reference compound]"
discrete_label = "T"

